- Assay: Rat pharmacokinetic study
- Assay type: in vivo, male Sprague Dawley rats
- Assay setup: plasma, male Sprague Dawley, IV 1 mg/kg, read-out: Vss

Compound | Vd [L/kg]
NC1CCC(S(=O)(=O)N2C3CCC2CC(NC(=O)c2cc(C4CC4)on2)C3)CC1 (stereo not shown) | 4.4

====

- System: panel of 240 cancer cell lines
- Assay: Proliferation in a broad panel of 240 cancer cell lines, 2D culture (Eurofins Panlabs Oncopanel)
- Assay type: cell-based
- Assay setup: Homo sapiens, MES-SA, Soft Tissue; read-out: IC50
pIC50: −log10 of the molar value.

Molecule | pIC50
NC1CCC(S(=O)(=O)N2C3CCC2CC(NC(=O)c2cc(C4CC4)on2)C3)CC1 (stereo not shown) [EPZ028862] | < 4.60
